Reported Plant response rating, Pigweed values are given for each entry in this list.
# System: pigweed
# TEST DETAILS: Test A postemergence
# Assay type: in vivo, Amaranthus retroflexus
# CONDITION CONTEXT: 500 g ai/ha, 0 to 100 scale, 0 no effect, 100 complete control
Lab note: jot down the number only; don't add units.

Solved entries (count: 5):
>>> experimental_result("Cc1cccc(Oc2ncc(Cl)cn2)c1-n1cc(Br)cn1")
100
>>> experimental_result("Cc1cnc(Oc2ccccc2-n2cc(Cl)cn2)nc1")
100
>>> experimental_result("O=[N+]([O-])c1cccc(Oc2ncc(Cl)cn2)c1-n1cc(Br)cn1")
100
>>> experimental_result("Cc1cccc(Oc2ncc(Br)cn2)c1-n1cc(Br)cn1")
80
>>> experimental_result("FC(F)(F)c1ccc(Oc2ncc(Cl)cn2)c(-n2cc(Br)cn2)c1")
50

Tell me the measured Plant response rating, Pigweed of Cc1cnc(Oc2ccccc2-n2cc(Br)cn2)nc1 , please.
90

---

# Tested on: velvetleaf
# TEST DETAILS: Test A postemergence
# Format: in vivo, Abutilon theophrasti
# CONDITION CONTEXT: 125 g ai/ha, 0 to 100 scale where 0 is no effect and 100 is complete control
Strictly below 80 in Velvetleaf plant response rating: Condition met. Otherwise: Condition not met.

Below are worked cases with known answers.
>>> assigned_label("Clc1cnc(Oc2ccccc2-n2cc(-c3ccccn3)cn2)nc1 [Compound 190]")
"Condition met"
>>> assigned_label("FC(F)(F)c1cnn(-c2c(Br)cccc2Oc2ncc(Cl)cn2)c1 [Compound 191]")
"Condition not met"
>>> assigned_label("O=Cc1cccc(Oc2ncc(Br)cn2)c1-n1cc(Cl)cn1 [Compound 206]")
"Condition met"

Item N#Cc1cnn(-c2c(C#N)cccc2Oc2ncc(Cl)cn2)c1 [Compound 200] : Velvetleaf plant response rating beneath 80, strictly?
Condition not met

Would you mind doing FC(F)c1cccc(Oc2ncc(Cl)cn2)c1-n1cc(C(F)(F)F)cn1 [Compound 170] as well?
Condition met

Would you mind doing C#Cc1cccc(Oc2ncc(Cl)cn2)c1-n1cc(Br)cn1 [Compound 199] as well?
Condition met

Would you mind doing Clc1cnc(Oc2cccc(Br)c2-n2cc(Cl)cn2)nc1 [Compound 221] as well?
Condition not met

---

Reported Wheat plant response rating values are given for each entry in this list.
# Test system: wheat, winter
# TEST DETAILS: Test C postemergence
# Assay type: in vivo, Triticum aestivum
# CONDITION CONTEXT: 31 g ai/ha, postemergence; visual rating, scale 0 to 100 (0 no effect, 100 complete control), 13 to 15 days
Lab note: jot down the number only; don't add units.

For wheat, winter, provide Wheat plant response rating of N#Cc1cn(-c2c(C#N)cccc2Oc2ncc(Cl)cn2)nn1 [Compound 273] please.
0

Would you mind doing Fc1cccc(Oc2ncc(Cl)cn2)c1-n1cc(Cl)cn1 [Compound 177] as well?
0

Would you mind doing Clc1cnc(Oc2cccc(Br)c2-n2cc(Cl)cn2)nc1 [Compound 221] as well?
0

Would you mind doing Fc1cnc(Oc2cccc(C(F)F)c2-n2cc(C(F)(F)F)cn2)nc1 [Compound 164] as well?
0

Would you mind doing FCc1cccc(Oc2ncc(F)cn2)c1-n1cc(I)cn1 [Compound 152] as well?
0

Would you mind doing N#Cc1cccc(Oc2ncc(Cl)cn2)c1-n1cc(OCC(F)(F)F)cn1 [Compound 274] as well?
5

---

# Test system: Italian ryegrass
# TEST DETAILS: Test A postemergence
# Type: in vivo, Lolium multiflorum
# CONDITION CONTEXT: 125 g ai/ha, 0 to 100 scale, 0 no effect, 100 complete control
# Text: […]
OUTCOME MEASURE: Plant response rating, Ryegrass, Italian
Lab note: jot down the number only; don't add units.

>>> experimental_result("FC(F)(F)c1cnn(-c2c(Oc3ncc(Cl)cn3)cccc2-c2ncon2)c1")
50
>>> experimental_result("N#Cc1cn(-c2c(C#N)cccc2Oc2ncc(Cl)cn2)nn1")
50
>>> experimental_result("Cc1cn(-c2c(C#N)cccc2Oc2ncc(Cl)cn2)cn1")
0
>>> experimental_result("Fc1cnc(Oc2ccccc2-n2cc(SC(F)(F)F)cn2)nc1")
0
>>> experimental_result("FCc1cccc(Oc2ncc(Br)cn2)c1-n1cc(Cl)cn1")
10

Consider now this further compound.
Tell me the measured Plant response rating, Ryegrass, Italian of N#Cc1cccc(Oc2ncc(Cl)cn2)c1-n1cc(C(F)F)cn1 , please.
50

---

# Test system: corn
# TEST DETAILS: Test A postemergence
# Assay type: in vivo, Zea mays
# CONDITION CONTEXT: 125 g ai/ha, 0 to 100 scale, 0 no effect, 100 complete control
Reported Plant response rating, Corn values are given for each entry in this list.
Lab note: jot down the number only; don't add units.

>>> experimental_result("Cc1cc(C(F)(F)F)nn1-c1ccccc1Oc1ncc(Cl)cn1 [Compound 266]")
0
>>> experimental_result("FCc1cccc(Oc2ncc(Cl)cn2)c1-n1cc(I)cn1 [Compound 245]")
40
>>> experimental_result("FCc1cccc(Oc2ncc(Br)cn2)c1-n1cc(Cl)cn1 [Compound 251]")
20
>>> experimental_result("C[Si](C)(C)C#Cc1cccc(Oc2ncc(Cl)cn2)c1-n1cc(Br)cn1 [Compound 293]")
0
>>> experimental_result("N#Cc1cnn(-c2c(CF)cccc2Oc2ncc(Br)cn2)c1 [Compound 243]")
0
>>> experimental_result("Clc1cnc(Oc2cccc(-c3ncco3)c2-n2cc(Br)cn2)nc1 [Compound 287]")
0
>>> experimental_result("NC(=S)c1cccc(Oc2ncc(Cl)cn2)c1-n1cc(Cl)cn1 [Compound 292]")
50

Tell me the measured Plant response rating, Corn of FCc1cccc(Oc2ncc(F)cn2)c1-n1cc(Cl)cn1 [Compound 249] , please.
10

---

# Tested on: large (Lg) crabgrass
# TEST DETAILS: Test A preemergence
# Type: in vivo, Digitaria sanguinalis
# CONDITION CONTEXT: 125 g ai/ha, 0 to 100 scale where 0 is no effect and 100 is complete control
OUTCOME MEASURE: Plant response rating, Crabgrass, Large
Lab note: jot down the number only; don't add units.

Solved entries (count: 2):
>>> experimental_result("Fc1cccc(Oc2ncc(Cl)cn2)c1-n1cc(Cl)cn1 [Compound 177]")
100
>>> experimental_result("FC(F)(F)c1ccc(Oc2ncc(Cl)cn2)c(-n2cc(Br)cn2)c1 [Compound 48]")
50

Tell me the measured Plant response rating, Crabgrass, Large of COc1cccc(-n2cc(Br)cn2)c1Oc1ncc(Cl)cn1 [Compound 41] , please.
30

Would you mind doing Fc1cnc(Oc2cccc(C(F)F)c2-n2cc(Cl)cn2)nc1 [Compound 94] as well?
100

Would you mind doing Clc1cnc(Oc2ccccc2-n2ccc(Br)n2)nc1 [Compound 21] as well?
90

Would you mind doing FC(F)c1cccc(Oc2ncc(Cl)cn2)c1-n1cc(C(F)(F)F)cn1 [Compound 170] as well?
100

---

# Test system: velvetleaf
# TEST DETAILS: Test A preemergence
# Assay type: in vivo, Abutilon theophrasti
# CONDITION CONTEXT: 500 g ai/ha, 0 to 100 scale where 0 is no effect and 100 is complete control
OUTCOME MEASURE: Velvetleaf plant response rating
Lab note: jot down the number only; don't add units.

>>> experimental_result("FC(F)c1cccc(Oc2ncc(Cl)cn2)c1-n1cc(I)cn1 [Compound 184]")
60
>>> experimental_result("O=Cc1cccc(Oc2ncc(Br)cn2)c1-n1cc(Br)cn1 [Compound 230]")
0

Consider now this further molecule.
Tell me the measured Velvetleaf plant response rating of FC(F)c1cccc(Oc2ncc(Cl)cn2)c1-n1cc(C(F)(F)F)cn1 [Compound 170] , please.
100

---

# System: barnyardgrass
# TEST DETAILS: Test B flooded paddy test
# Type: in vivo, Echinochloa crus-galli
# CONDITION CONTEXT: Flood, 250 g ai/ha; 0 to 100 scale where 0 is no effect and 100 is complete control
OUTCOME MEASURE: Plant response rating, Barnyardgrass
Lab note: jot down the number only; don't add units.

Solved entries (count: 4):
>>> experimental_result("CC(C)c1cnn(-c2c(C#N)cccc2Oc2ncc(Cl)cn2)c1")
0
>>> experimental_result("Fc1cnc(Oc2cccc(C(F)F)c2-n2cc(Cl)cn2)nc1")
0
>>> experimental_result("COc1ccc(C#N)c(-n2cc(Br)cn2)c1Oc1ncc(Cl)cn1")
0
>>> experimental_result("CC(=O)c1cn(-c2c(Br)cccc2Oc2ncc(Cl)cn2)nn1")
10

Consider now this further compound.
Tell me the measured Plant response rating, Barnyardgrass of N#Cc1cccc(Oc2ncc(Br)cn2)c1-n1cc(Cl)cn1 , please.
0

---

# Test system: morningglory
# TEST DETAILS: Test C postemergence
# Assay type: in vivo, Ipomoea coccinea
# CONDITION CONTEXT: Ipomoea, post-emergence; Postemergence, 31 g ai/ha; scale 0 to 100 (0 no effect, 100 complete control); 13 to 15 days; read-out: Plant response rating, Morningglory
OUTCOME MEASURE: pest or weed control at 31 g/ha

>>> experimental_result("FC(F)c1cnn(-c2ccccc2Oc2ncc(Cl)cn2)c1")
"10%"
>>> experimental_result("N#Cc1cccc(Oc2ncc(F)cn2)c1-n1cc(C(F)(F)F)cn1")
"70%"
>>> experimental_result("N#Cc1cccc(Oc2ncc(Cl)cn2)c1-n1cc(Br)cn1")
"80%"

Consider now this further molecule.
Tell me the measured pest or weed control at 31 g/ha of Clc1cnn(-c2ccccc2Oc2ncc(Br)cn2)c1 , please.
40%
